Where these numbers come from: patent US20200115357A1

# tested target: GST-LXRβ ligand-binding domain (Homo sapiens, UniProt P55055, DUP175-175)
# Construct: amino acids 156-461; NP009052
# Sequence (P55055 with tags, fused parts or gaps DUP175-175): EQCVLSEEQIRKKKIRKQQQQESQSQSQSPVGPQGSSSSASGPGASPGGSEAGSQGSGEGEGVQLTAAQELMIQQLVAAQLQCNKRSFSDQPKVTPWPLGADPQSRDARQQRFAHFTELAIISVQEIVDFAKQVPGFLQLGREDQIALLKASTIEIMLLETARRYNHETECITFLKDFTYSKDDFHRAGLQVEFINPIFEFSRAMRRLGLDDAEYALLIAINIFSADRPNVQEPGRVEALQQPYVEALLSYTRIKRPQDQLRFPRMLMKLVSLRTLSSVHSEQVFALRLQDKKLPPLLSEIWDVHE
# assay remarks: TR-FRETβ activity assay (LXRβ-LBD / NCoA3 coactivator peptide, prestimulated with 24(S)-25-epoxycholesterol)
# applied conditions: 1 μM 24(S)-25-epoxycholesterol as prestimulating agonist; read-out: FRETβ activity range (EC50)
recorded endpoint: EC50

Reported EC50, compound Cc1cc(C)c(S(=O)(=O)N(Cc2ccc(-c3cccc(CC(=O)O)c3)cc2)Cc2ccc(C(F)(F)F)o2)c(C)c1 : ____
0.1 to 1 µM

I am curious: what EC50 value has been reported for COc1ccc2cccnc2c1S(=O)(=O)N(Cc1ccc(-c2cccc(C(C)(C)C(=O)O)c2)cc1)Cc1ccc(C(F)(F)F)o1 ?
0.1 to 1 µM

Would you mind telling me what EC50 value was observed for Cc1cc(C)c(S(=O)(=O)N(Cc2ccc(-c3cccc(C(C)(C)C(=O)O)c3)cc2)c2ccc(C(F)(F)F)o2)c(C)c1 ?
0.1 to 1 µM

Report EC50 for Cc1cc(C)c(S(=O)(=O)N(Cc2ccc(C(F)(F)F)o2)C(C)c2ccc(-c3cccc(CC(=O)O)c3)cc2)c(C)c1 (stereo not drawn) please.
1 to 10 µM

GET /values?readout=EC50&item= Cc1cc(C)c(S(=O)(=O)N(Cc2ccc(-c3cc(F)cc(C4(C(=O)O)CC4)c3)cc2)Cc2ccc(C(F)(F)F)o2)c(C)c1
0.1 to 1 µM

EC50 for Cc1cc(C)c(S(=O)(=O)N(Cc2ccc(-c3cccc(S(=O)(=O)CC(=O)O)c3)cc2)Cc2c(F)cccc2Cl)c(C)c1 ?
0.1 to 1 µM

Which EC50 reading was recorded for the compound COc1ccc(C(C)(C)C(=O)O)cc1-c1ccc(CN(Cc2ccc(C(F)(F)F)o2)S(=O)(=O)c2c(C)cc(C)cc2C)cc1 ?
1 to 10 µM

Consider the compound shown here: Cc1nn2cccnc2c1S(=O)(=O)N(Cc1ccc(-c2cccc(C(C)(C)C(=O)O)c2)cc1)Cc1ccc(C(F)(F)F)o1 What is its recorded EC50?
0.1 to 1 µM

EC50 for Cc1cc(C)c(S(=O)(=O)N(Cc2ccc(-c3cccc(S(=O)(=O)CC(=O)O)c3)cc2)Cc2ccc(C(F)(F)F)o2)c(C)c1 ?
1 to 10 µM

Tell me the measured EC50 of COc1cccc(CN(Cc2ccc(-c3cccc(S(=O)(=O)CC(=O)O)c3)cc2)S(=O)(=O)c2c(C)cc(C)cc2C)c1 , please.
> 10 µM

Form field: reported EC50 of COc1ccc(-c2ccc(CN(Cc3ccc(C(F)(F)F)o3)S(=O)(=O)c3c(C)cc(C)cc3C)cc2)cc1C(C)(C)C(=O)O
1 to 10 µM

Reported EC50 for Cc1cc(C)c(S(=O)(=O)N(Cc2ccc(-c3cccc(C(=O)O)c3)cc2)Cc2ccc(C(F)(F)F)o2)c(C)c1 : what is it?
> 10 µM

Requested field: EC50. Item: Cc1ccc2ccccc2c1S(=O)(=O)N(Cc1ccc(-c2cccc(S(=O)(=O)CC(=O)O)c2)cc1)Cc1ccc(C#N)o1
1 to 10 µM

Which EC50 is listed for CC(=O)NS(=O)(=O)c1cccc(-c2ccc(CN(Cc3ccc(C(F)(F)F)o3)S(=O)(=O)c3c(C)cc(C)cc3C)cc2)c1 ?
> 10 µM

Given O=C(O)CS(=O)(=O)c1cccc(-c2ccc(CN(Cc3ccc(C(F)(F)F)o3)S(=O)(=O)c3c(Cl)cccc3Cl)cc2)c1 , state its recorded EC50.
1 to 10 µM
